src = patent US11180496B2

Biological target: ITK (Homo sapiens, UniProt Q08881)
Construct: purchased Promega
Test: ITK inhibitory activity, ADP-Glo + ITK Kinase enzyme system kit (Promega)
Format: biochemical
Details: ITK enzyme 0.4 ng/uL, ATP 25 uM, 15 min preincubation, luminescence, duplicate
endpoint-label: IC50 (nM)
One number for each entry, in nM.

In [3]: df
Out[3]:
                                   compound                         target_desc  uom  quantitative_result
0  C=CC(=O)N1CCC[C@@H](n2nc(-c3ccc(Oc4ccccc4)cc3)c3c(N)ncc(I)c32)C1 [Example 16]  ITK (Homo sapiens, UniProt Q08881)   nM                  2.7

Please look at the following compound next.
The compound listed as C=CC(=O)N1CCC[C@@H](n2nc(C(=O)Nc3nc4cc(F)ccc4o3)c3c(N)ncc(Cl)c32)C1 [Example 76] shows IC50 equal to 2.1

* * *

Target: ITK (Homo sapiens)
Sequence (Q08881 1-620): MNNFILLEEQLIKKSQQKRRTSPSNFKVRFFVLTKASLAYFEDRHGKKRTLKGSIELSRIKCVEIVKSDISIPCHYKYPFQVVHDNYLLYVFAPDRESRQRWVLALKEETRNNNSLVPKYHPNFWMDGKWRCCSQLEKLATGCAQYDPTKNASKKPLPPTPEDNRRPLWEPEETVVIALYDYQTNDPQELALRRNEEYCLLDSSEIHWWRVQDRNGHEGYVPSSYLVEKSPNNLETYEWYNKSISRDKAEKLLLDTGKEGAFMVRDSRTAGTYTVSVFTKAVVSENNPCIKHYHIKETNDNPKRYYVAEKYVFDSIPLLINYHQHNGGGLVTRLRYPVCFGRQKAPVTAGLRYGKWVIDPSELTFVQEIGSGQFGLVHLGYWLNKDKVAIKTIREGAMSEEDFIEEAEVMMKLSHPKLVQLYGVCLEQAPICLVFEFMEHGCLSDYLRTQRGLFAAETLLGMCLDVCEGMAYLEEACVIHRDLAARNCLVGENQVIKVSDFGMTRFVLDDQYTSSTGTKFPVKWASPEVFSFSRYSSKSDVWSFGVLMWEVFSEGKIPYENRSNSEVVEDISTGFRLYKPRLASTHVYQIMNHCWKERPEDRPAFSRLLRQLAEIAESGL
endpoint-label: IC50

Please review the following examples before continuing.
In [3]: df
Out[3]:
                                   compound         target_desc     result
0  C=CC(=O)N1CCC[C@H](n2nc(-c3ccc(C(=O)Nc4ccccn4)cc3)c3c(N)nccc32)C1 [Example 39]  ITK (Homo sapiens)  > 1000 nM
1  C=CC(=O)N1CCC(n2nc(-c3ccc(Oc4ccccc4)cc3)c3c(N)ncc(/C=C/c4ccc(F)cc4)c32)CC1 [Example 15]  ITK (Homo sapiens)   > 500 nM
2  C=CC(=O)N1CCC[C@@H](n2nc(-c3ccc(C(=O)Nc4ccccn4)cc3)c3c(N)ncc(Br)c32)C1 [Example 20]  ITK (Homo sapiens)  > 1000 nM

Respectfully, I request IC50 for each entry included below.
1. C=CC(=O)N1CCCC(n2nc(-c3ccc(Oc4ccccc4)cc3)c3c(N)ncc(-c4ccccc4)c32)C1 (stereo not drawn) [Example 11]
2. C=CC(=O)N1CC2CC1C(n1nc(-c3ccc(Oc4ccccc4)cc3)c3c(N)ncc(-c4cnn(C)c4)c31)C2 (stereo not drawn) [Example 8]
3. C=C(C)C(=O)N1CCC[C@@H](n2nc(-c3ccc(C(=O)Nc4ccccn4)cc3F)c3c(N)nccc32)C1 [Example 54]

# output
1. 224 nM
2. > 500 nM
3. > 1000 nM
